Where do the numbers come from? From patent US20250276962A1.

- Tested on: KCNQ1
- methodNotes: in vitro
- Format: cell-based
experimentalReadout: inhibition at 10 µM (%)

INSERT INTO measurements (molecule, unittext, measurednumber) VALUES
  ('Cc1ccc(C2=CC(C)(C)Oc3ccc(-c4ccc(-c5ccc(C(=O)[O-])cc5)[nH]4)cc32)cc1.[Na+] [Example 1]', '%', 22.8);

----------
- methodNotes: Stability in dog hepatocytes
- Assay type: in vitro ADME
- testContext: read-out: Half-life (T1/2) Hepatocytes (Phase I and Phase II metabolism)
experimentalReadout: half-life

INSERT INTO results (structurestring, result) VALUES
  ('Cc1ccc(C2=CC(C)(C)Oc3ccc(-c4ccc(-c5ccc(C(=O)[O-])cc5)[nH]4)cc32)cc1.[Na+]', '> 10 h');

----------
- systemTested: hERG (Homo sapiens)
- Sequence (Q12809 whole entry): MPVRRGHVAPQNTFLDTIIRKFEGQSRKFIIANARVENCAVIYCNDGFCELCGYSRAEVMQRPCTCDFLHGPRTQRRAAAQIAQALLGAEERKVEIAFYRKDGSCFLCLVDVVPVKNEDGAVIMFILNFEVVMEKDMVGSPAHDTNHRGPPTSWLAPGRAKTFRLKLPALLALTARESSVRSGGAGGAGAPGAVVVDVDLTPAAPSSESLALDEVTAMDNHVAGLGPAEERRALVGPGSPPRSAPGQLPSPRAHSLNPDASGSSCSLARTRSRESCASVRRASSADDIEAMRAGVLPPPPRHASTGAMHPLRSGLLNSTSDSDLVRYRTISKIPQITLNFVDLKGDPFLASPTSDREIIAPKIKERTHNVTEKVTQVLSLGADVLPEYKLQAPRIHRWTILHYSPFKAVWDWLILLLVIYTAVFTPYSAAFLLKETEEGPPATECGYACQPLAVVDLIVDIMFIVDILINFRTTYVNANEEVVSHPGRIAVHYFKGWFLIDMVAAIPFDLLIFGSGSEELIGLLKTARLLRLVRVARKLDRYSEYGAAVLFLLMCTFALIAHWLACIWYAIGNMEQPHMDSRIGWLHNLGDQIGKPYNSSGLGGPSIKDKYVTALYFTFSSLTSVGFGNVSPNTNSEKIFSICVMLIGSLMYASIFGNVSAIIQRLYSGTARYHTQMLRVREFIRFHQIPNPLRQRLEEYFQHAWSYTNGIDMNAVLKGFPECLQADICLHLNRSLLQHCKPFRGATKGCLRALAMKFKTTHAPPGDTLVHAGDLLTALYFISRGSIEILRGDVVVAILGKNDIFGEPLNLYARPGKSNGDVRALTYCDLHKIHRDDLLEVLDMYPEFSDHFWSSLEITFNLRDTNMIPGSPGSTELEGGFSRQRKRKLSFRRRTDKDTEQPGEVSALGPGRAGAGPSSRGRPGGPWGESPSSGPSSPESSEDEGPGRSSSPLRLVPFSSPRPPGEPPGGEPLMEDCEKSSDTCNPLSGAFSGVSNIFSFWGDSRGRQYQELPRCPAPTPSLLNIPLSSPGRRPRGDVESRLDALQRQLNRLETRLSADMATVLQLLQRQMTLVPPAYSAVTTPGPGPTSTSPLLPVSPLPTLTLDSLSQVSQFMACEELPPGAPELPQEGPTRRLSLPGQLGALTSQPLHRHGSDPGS
- methodNotes: in vitro
- testContext: human, Average % of hERG inhibition, 10.00 μM
experimentalReadout: inhibition at 10 µM

INSERT INTO results (structurestring, experimentalreadout, result) VALUES
  ('Cc1ccc(C2=CC(C)(C)Oc3ccc(-c4ccc(-c5ccc(C(=O)[O-])cc5)[nH]4)cc32)cc1.[Na+]', 'inhibition at 10 µM', '19.9%');

----------
- methodNotes: Solubility in saline and 50% carbitol
- Assay type: physicochemical
- testContext: 50% carbitol [2-(2-ethoxyethoxy)ethanol], aqueous with cosolvent or surfactant or cyclodextrin, in 50% carbitol [2-(2-ethoxyethoxy)ethanol; read-out: Solubility
experimentalReadout: solubility

INSERT INTO assay_data (compound, experimentalreadout, result) VALUES
  ('Cc1ccc(C2=CC(C)(C)Oc3ccc(-c4ccc(-c5ccc(C(=O)[O-])cc5)[nH]4)cc32)cc1.[Na+] [Example 1]', 'solubility', '> 100 mg/mL');

----------
- methodNotes: physchem
- testContext: pH 7.4
experimentalReadout: logD

INSERT INTO measurements (compound, experimentalreadout, measurednumber) VALUES
  ('Cc1ccc(C2=CC(C)(C)Oc3ccc(-c4ccc(-c5ccc(C(=O)[O-])cc5)[nH]4)cc32)cc1.[Na+] [Example 1]', 'logD', 3.5);

----------
- methodNotes: Repeat dose PK (14 days), rat
- Format: in vivo
- testContext: male, Sprague-Dawley, plasma, oral; Rat 50 mg/kg/day, Day 14; read-out: AUC0-48
experimentalReadout: AUC(0-t) (ng·h/mL)

INSERT INTO assay_data (compound, measurednumber) VALUES
  ('Cc1ccc(C2=CC(C)(C)Oc3ccc(-c4ccc(-c5ccc(C(=O)[O-])cc5)[nH]4)cc32)cc1.[Na+] [Example 1]', 91100);

----------
- systemTested: RARγ (Homo sapiens, UniProt P13631)
- Sequence (P13631 whole entry, species assumed): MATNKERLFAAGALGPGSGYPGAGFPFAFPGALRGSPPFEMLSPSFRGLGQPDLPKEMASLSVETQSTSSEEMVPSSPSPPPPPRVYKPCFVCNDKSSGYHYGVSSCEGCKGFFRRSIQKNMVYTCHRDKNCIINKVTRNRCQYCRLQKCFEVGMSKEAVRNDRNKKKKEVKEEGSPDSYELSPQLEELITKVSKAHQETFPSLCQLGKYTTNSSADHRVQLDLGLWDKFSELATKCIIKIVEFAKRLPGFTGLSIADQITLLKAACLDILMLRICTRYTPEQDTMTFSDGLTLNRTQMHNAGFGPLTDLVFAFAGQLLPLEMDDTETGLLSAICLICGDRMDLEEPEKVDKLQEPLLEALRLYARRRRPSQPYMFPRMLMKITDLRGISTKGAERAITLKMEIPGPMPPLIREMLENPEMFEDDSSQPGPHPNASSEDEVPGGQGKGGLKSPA
- methodNotes: Transactivation (luciferase) antagonist assay, RARγ
- testContext: vs EC80 (8 nM) ATRA, luciferase readout; read-out: RARγ Antagonism IC50
pIC50: −log10 of the molar value.
experimentalReadout: pIC50

INSERT INTO assay_data (structurestring, result) VALUES
  ('CC1(C)C=C(c2ccccc2)c2cc(-c3ccc(-c4ccc(C(=O)O)cc4)[nH]3)ccc2O1', '< 5.48'),
  ('Cc1ccc(C2=CC(C)(C)Oc3ccc(-c4ccc(-c5ccc(C(=O)O)c(C)c5)[nH]4)cc32)cc1', '< 5.52'),
  ('Cc1ccc(C2=CC(C)(C)Oc3ccc(-c4ccc(-c5ccc(C(=O)O)c(O)c5)[nH]4)cc32)cc1', '< 5.52');

----------
- systemTested: Kir2.1 (potassium channel of excitable cells) (Homo sapiens, UniProt P63252)
- Sequence (P63252 whole entry): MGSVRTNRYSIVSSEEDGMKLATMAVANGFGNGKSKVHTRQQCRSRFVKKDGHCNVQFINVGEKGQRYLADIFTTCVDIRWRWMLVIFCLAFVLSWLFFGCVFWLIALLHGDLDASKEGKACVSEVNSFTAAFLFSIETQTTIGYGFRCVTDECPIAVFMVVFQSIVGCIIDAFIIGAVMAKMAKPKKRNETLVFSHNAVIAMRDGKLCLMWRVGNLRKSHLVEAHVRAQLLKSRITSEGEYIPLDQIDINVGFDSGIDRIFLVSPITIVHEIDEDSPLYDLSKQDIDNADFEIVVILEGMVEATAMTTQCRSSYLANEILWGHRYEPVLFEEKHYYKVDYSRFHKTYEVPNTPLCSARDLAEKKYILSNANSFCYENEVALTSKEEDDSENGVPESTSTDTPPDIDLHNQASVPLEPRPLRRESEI
- methodNotes: Off-target screening, Kir2.1
- Type: cell-based
experimentalReadout: IC50

INSERT INTO assay_data (structurestring, result) VALUES
  ('Cc1ccc(C2=CC(C)(C)Oc3ccc(-c4ccc(-c5ccc(C(=O)[O-])cc5)[nH]4)cc32)cc1.[Na+]', '> 10 µM');

----------
- systemTested: NaV1.5 (cardiac sodium ion channel) (Homo sapiens, UniProt Q14524)
- Sequence (Q14524 whole entry): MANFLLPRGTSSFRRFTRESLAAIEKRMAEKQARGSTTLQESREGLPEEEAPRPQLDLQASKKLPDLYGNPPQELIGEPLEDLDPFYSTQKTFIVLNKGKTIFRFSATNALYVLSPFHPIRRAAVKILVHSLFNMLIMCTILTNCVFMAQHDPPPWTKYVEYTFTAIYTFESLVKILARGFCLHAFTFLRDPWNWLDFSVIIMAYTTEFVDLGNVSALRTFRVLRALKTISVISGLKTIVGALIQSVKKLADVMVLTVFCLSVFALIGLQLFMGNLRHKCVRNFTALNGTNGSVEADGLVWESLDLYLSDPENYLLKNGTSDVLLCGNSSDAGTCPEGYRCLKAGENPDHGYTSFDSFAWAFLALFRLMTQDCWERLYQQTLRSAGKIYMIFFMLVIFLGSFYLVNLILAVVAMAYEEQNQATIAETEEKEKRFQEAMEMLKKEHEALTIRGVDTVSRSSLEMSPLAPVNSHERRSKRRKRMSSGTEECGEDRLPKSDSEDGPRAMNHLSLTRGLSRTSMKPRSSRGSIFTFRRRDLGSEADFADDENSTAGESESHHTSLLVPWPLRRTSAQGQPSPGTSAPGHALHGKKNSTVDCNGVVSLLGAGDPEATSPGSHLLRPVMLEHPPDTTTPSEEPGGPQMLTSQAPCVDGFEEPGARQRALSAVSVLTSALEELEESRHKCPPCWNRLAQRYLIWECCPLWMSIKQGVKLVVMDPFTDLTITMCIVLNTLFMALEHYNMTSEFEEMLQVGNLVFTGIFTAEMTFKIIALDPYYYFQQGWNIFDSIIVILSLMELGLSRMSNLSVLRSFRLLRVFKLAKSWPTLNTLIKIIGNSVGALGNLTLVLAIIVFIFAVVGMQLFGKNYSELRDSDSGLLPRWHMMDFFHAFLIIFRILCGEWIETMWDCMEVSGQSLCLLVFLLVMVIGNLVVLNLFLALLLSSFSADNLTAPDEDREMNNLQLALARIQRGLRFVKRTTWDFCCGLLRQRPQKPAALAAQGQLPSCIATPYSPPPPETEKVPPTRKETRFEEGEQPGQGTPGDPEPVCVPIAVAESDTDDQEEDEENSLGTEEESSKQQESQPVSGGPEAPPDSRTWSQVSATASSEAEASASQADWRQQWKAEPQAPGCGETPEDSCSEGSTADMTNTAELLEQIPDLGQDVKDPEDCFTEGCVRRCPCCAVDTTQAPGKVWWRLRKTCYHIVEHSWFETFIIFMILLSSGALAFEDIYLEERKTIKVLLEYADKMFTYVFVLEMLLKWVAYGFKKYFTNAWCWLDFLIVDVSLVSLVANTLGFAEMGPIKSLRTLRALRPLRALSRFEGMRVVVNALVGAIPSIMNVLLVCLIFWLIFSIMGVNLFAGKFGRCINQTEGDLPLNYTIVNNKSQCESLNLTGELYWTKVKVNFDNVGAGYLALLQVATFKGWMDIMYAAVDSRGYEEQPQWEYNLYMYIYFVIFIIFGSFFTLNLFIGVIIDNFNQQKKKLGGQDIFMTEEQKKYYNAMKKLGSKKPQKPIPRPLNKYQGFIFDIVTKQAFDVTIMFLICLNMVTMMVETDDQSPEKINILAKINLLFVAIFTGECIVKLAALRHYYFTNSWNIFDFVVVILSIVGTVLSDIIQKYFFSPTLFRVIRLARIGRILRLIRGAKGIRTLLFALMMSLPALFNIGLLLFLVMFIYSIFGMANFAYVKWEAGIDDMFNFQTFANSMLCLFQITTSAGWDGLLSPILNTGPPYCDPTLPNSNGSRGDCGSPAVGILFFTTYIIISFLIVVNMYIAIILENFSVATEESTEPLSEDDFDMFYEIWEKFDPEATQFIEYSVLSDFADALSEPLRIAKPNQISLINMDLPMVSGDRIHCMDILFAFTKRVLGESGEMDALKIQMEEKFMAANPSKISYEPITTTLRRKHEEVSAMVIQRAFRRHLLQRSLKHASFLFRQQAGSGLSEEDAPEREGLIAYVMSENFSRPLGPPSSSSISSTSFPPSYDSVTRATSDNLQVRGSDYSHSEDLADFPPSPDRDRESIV
- methodNotes: Off-target screening, NaV1.5
pIC50: −log10 of the molar value.
experimentalReadout: pIC50

INSERT INTO measurements (structurestring, measurednumber) VALUES
  ('Cc1ccc(C2=CC(C)(C)Oc3ccc(-c4ccc(-c5ccc(C(=O)[O-])cc5)[nH]4)cc32)cc1.[Na+]', 5.06);

----------
- methodNotes: in vitro
- testContext: human hepatocytes
experimentalReadout: CLint scaled (mL/min/kg)

INSERT INTO results (compound, measurednumber) VALUES
  ('Cc1ccc(C2=CC(C)(C)Oc3ccc(-c4ccc(-c5ccc(C(=O)[O-])cc5)[nH]4)cc32)cc1.[Na+] [Example 1]', 6.75);

----------
- systemTested: acetylcholinesterase (AChE) (Homo sapiens)
- Sequence (P22303 32-614, species assumed): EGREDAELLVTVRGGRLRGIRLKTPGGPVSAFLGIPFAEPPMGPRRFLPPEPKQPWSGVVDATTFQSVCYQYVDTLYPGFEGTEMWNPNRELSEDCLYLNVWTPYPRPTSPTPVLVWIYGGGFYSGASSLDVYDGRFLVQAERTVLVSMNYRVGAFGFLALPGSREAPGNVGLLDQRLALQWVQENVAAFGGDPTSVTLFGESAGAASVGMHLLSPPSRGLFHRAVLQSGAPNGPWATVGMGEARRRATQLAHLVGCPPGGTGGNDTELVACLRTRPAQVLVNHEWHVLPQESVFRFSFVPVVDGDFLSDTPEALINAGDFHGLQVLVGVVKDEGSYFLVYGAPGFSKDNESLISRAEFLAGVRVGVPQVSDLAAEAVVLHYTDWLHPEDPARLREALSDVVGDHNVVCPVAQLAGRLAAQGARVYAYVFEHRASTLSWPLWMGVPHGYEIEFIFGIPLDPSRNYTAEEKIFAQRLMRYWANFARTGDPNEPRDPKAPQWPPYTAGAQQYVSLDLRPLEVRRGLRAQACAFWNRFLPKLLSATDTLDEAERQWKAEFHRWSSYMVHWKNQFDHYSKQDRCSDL
pIC50: −log10 of the molar value.
experimentalReadout: pIC50

INSERT INTO measurements (structurestring, systemtested, result) VALUES
  ('Cc1ccc(C2=CC(C)(C)Oc3ccc(-c4ccc(-c5ccc(C(=O)[O-])cc5)[nH]4)cc32)cc1.[Na+]', 'acetylcholinesterase (AChE) (Homo sapiens)', '< 4.52');

----------
- methodNotes: in vivo
- testContext: male, Beagle, dog, oral
experimentalReadout: MTD at 2 weeks (mg/kg)

INSERT INTO measurements (structurestring, experimentalreadout, unittext, measurednumber) VALUES
  ('Cc1ccc(C2=CC(C)(C)Oc3ccc(-c4ccc(-c5ccc(C(=O)[O-])cc5)[nH]4)cc32)cc1.[Na+]', 'MTD at 2 weeks', 'mg/kg', 25);

----------
- methodNotes: Stability in monkey liver microsomes
- Type: in vitro ADME
- testContext: read-out: Half-life (T1/2) Liver microsomes (Phase I metabolism) (converted)
experimentalReadout: half-life (min)

INSERT INTO assay_data (structurestring, unittext, measurednumber) VALUES
  ('Cc1ccc(C2=CC(C)(C)Oc3ccc(-c4ccc(-c5ccc(C(=O)[O-])cc5)[nH]4)cc32)cc1.[Na+]', 'min', 1390);

----------
- methodNotes: Single dose toxicity, mouse
- testContext: male, CD-1, mouse, in vivo, Maximum tolerated dose (MTD), male CD-1 mice, highest dose level tested
experimentalReadout: MTD

INSERT INTO results (compound, result) VALUES
  ('Cc1ccc(C2=CC(C)(C)Oc3ccc(-c4ccc(-c5ccc(C(=O)[O-])cc5)[nH]4)cc32)cc1.[Na+] [Example 1]', '> 1000 mg/kg');

----------
- systemTested: hERG (Homo sapiens)
- methodNotes: in vitro
- testContext: human, % of hERG inhibition Cell 2, 10.00 μM
experimentalReadout: inhibition at 10 µM (%)

INSERT INTO results (structurestring, unittext, measurednumber) VALUES
  ('Cc1ccc(C2=CC(C)(C)Oc3ccc(-c4ccc(-c5ccc(C(=O)[O-])cc5)[nH]4)cc32)cc1.[Na+]', '%', 20.2);
